# Test system: HCC 2998
# method-notes: NCI tumour cell line growth inhibition, 48 h
The source made the active and inactive calls. No stated cut-off is given here; in the data, active = GI50 up to about 1.1 µM and inactive = higher.
Your answer must be one of the following: true for active, false for inactive

Worked set:
Clc1c(Cl)c(Cl)c2nn(C3CCCO3)nc2c1Cl (centres undefined) | false
c1ccc2c(c1)ccc1nc(-c3ccc4c(c3)OCO4)c3c(c12)CCC3 | false
CCNc1cc2oc(=O)cc(C(F)(F)F)c2cc1C | false
CCCCC[C@@H]1OCO[C@@]2(C)/C=C(C)\C=C/C(=O)O[C@H]([C@@H](C)[C@@H](O)[C@H](C)[C@@]3(O)C[C@@H](O[C@H]4C[C@@H](O)[C@H](O)[C@@H](C)O4)[C@H](C)[C@@H](C)O3)[C@@H](OC)/C=C\C=C(\C)C[C@@H]1[C@@H]2O (stereo in doubt) | true
Cc1cc(OCC(O)CO)ccc1-c1ccccc1 (centres undefined) | false
CCC1(O)C(=O)OCc2c1cc1n(c2=O)Cc2cc3cc(OC)c(OC)cc3nc2-1 (centres undefined) | false

Which outcome was entered for the compound NC1(C(=O)O)CCC(C(=O)O)CC1 (centres undefined) in this test?
false

Which outcome was entered for the compound COCCOC(=O)C1=C(O)c2ccccc2S(=O)(=O)N1C in this test?
false

Which outcome was entered for the compound O=c1c2nn[nH]c2nc2n1CC(c1ccccc1)S2 (centres undefined) in this test?
false
